Biological target: UniProt O95665
Sequence (O95665 whole entry): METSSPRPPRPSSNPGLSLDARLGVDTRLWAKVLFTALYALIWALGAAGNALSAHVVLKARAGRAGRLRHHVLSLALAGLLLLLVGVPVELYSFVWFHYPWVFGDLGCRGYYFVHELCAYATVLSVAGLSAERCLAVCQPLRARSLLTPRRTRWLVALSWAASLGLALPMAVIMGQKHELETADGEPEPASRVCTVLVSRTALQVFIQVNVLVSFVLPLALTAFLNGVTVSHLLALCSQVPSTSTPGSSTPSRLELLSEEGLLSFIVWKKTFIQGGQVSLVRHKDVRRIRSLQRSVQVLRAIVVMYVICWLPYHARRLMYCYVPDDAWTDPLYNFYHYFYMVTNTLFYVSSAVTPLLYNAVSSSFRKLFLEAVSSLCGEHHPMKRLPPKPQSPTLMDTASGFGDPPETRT
Assay: TGFα-shedding assay-based GPCR screening with chimeric Gα subunit proteins
Format: cell-based
Details: NTSR2 (neurotensin receptor type 2); 10µM, Favipiravir 100μM
For each record, write down the corresponding % GPCR activation compared to TPA.
Numbers only, in %.

The following compounds have reported results that may help.
CC(C)OC(=O)[C@H](C)N[P@](=O)(OC[C@H]1O[C@@H](n2ccc(=O)[nH]c2=O)[C@](C)(F)[C@@H]1O)Oc1ccccc1	0.2553
N#C[C@@]1(c2ccc3c(N)ncnn23)O[C@H](CO)[C@@H](O)[C@H]1O	1.005
CCC(CC)COC(=O)[C@H](C)N[P@](=O)(OC[C@H]1O[C@@](C#N)(c2ccc3c(N)ncnn23)[C@H](O)[C@@H]1O)Oc1ccccc1	-1.859
NC(=O)c1nc(F)cnc1O [favipiravir, 6-fluoro-3-hydroxy-2-pyrazinecarboxamide]	-3.411

Kindly review the next compound as well.
Quick check: % GPCR activation compared to TPA on UniProt O95665, item "CC(C)C(=O)OC[C@H]1O[C@@H](n2ccc(NO)nc2=O)[C@H](O)[C@@H]1O" ?
0.1275

###

Target: 348 GPCRs (Homo sapiens)
Construct: expressed in transfected cells; host or cells: HEK293A
Assay: TGFα-shedding assay-based GPCR screening with chimeric Gα subunit proteins
Assay type: cell-based
Conditions: GPCR CX3CR1 (chemokine (C-X3-C motif) receptor 1); 10µM
I'd appreciate it if you could supply % GPCR activation compared to TPA values for the items below.

Here's what some known entries look like.
CCC(CC)COC(=O)[C@H](C)N[P@](=O)(OC[C@H]1O[C@@](C#N)(c2ccc3c(N)ncnn23)[C@H](O)[C@@H]1O)Oc1ccccc1	2.076%
CC(C)OC(=O)[C@H](C)N[P@](=O)(OC[C@H]1O[C@@H](n2ccc(=O)[nH]c2=O)[C@](C)(F)[C@@H]1O)Oc1ccccc1	0.2471%
CC(C)C(=O)OC[C@H]1O[C@@H](n2ccc(NO)nc2=O)[C@H](O)[C@@H]1O	-0.5795%

Lab note: next compound to report on.
Requested read-out: % GPCR activation compared to TPA. Entry: "N#C[C@@]1(c2ccc3c(N)ncnn23)O[C@H](CO)[C@@H](O)[C@H]1O"
-0.5209%

###

Provide the reported activation at 100 µM of each item.
Target: 348 GPCRs (Homo sapiens)
Assay: TGFα-shedding assay-based GPCR screening with chimeric Gα subunit proteins
Assay type: cell-based
Details: read-out: % GPCR activation compared to TPA, CB1 (cannabinoid receptor 1); 10µM, Favipiravir 100μM
Numbers only, in %.

Recorded activation at 100 µM, per entry:
NC(=O)c1nc(F)cnc1O [favipiravir, 6-fluoro-3-hydroxy-2-pyrazinecarboxamide]	1.89
CCC(CC)COC(=O)[C@H](C)N[P@](=O)(OC[C@H]1O[C@@](C#N)(c2ccc3c(N)ncnn23)[C@H](O)[C@@H]1O)Oc1ccccc1 [remdesivir]	-4.06
CC(C)C(=O)OC[C@H]1O[C@@H](n2ccc(NO)nc2=O)[C@H](O)[C@@H]1O [molnupiravir]	-1.3
N#C[C@@]1(c2ccc3c(N)ncnn23)O[C@H](CO)[C@@H](O)[C@H]1O [GS441524]	0.0409

Field request: activation at 100 µM | item: CC(C)OC(=O)[C@H](C)N[P@](=O)(OC[C@H]1O[C@@H](n2ccc(=O)[nH]c2=O)[C@](C)(F)[C@@H]1O)Oc1ccccc1 [sofosbuvir]
-1.13
